Assayed target: T1, human NGF-Fc protein (human, UniProt P01138 122-241, limits assumed)
T1 construct: not shown: human IgG1 Fc or IgG4 Fc
T1 sequence (P01138 122-241 limits assumed): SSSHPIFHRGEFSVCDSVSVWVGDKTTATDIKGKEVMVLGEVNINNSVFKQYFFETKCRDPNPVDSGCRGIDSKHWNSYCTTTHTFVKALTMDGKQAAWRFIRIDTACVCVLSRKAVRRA
Test protocol: BLI (Octet Red), human NGF-Fc captured on anti-human Fc sensors, Fab in solution
pKd: −log10 of the molar value.
Below, each entry is listed with its recorded pKd.
Observable: pKd

Binder	Reported result
Ab4 Fab (Fab, V domains shown) VH: EVQLVQSGAEVKKPGATVKISCKVSGYTFITYWISWVQQAPGKGLEWMGAIDPSDSDARYSPSFQGRVTITADTSTDTAYMELSSLRSEDTAVYYCAKSDPGYSGYSLLYGFDSWGQGTLVTVSS VL: DVVMTQSPLSLPVTLGQPASISCRSSQSLVQRNGNTYLSWYQQRPGQSPRLLIYQVSNRYSGVPDRFSGSGSGTDFTLKISRVEAEDVGVYYCGQGAHLPLTFGQGTKVEIK	10.13
Ab47 Fab (Fab, V domains shown) VH: EVQLVQSGAEVKKPGESLKISCKGSGYSFITYWISWVRQMPGKGLEWMGAIDPSDSDARYSPSFQGQVTISADKSISTAYLQWSSLKASDTAMYYCAKSDPGYSGYSLLYGFDSWGQGTLVTVSS VL: DIVMTQSPLSLPVTLGQPASISCRSSQSLVQRNGNTYLSWFQQRPGQSPRLLIYQVSNRYSGVPDRFSGSGSGTDFTLKISRVEAEDVGVYYCGQGAHLPLTFGQGTKVEIK	8.46
Ab46 Fab (Fab, V domains shown) VH: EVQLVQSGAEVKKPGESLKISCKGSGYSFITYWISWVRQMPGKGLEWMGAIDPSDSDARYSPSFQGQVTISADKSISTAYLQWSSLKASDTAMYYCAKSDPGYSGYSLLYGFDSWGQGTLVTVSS VL: DVVMTQSPLSLPVTLGQPASISCRSSQSLVQRNGNTYLSWFQQRPGQPPRLLIYQVSNRYSGVPDRFSGSGSGTDFTLKISRVEAEDVGVYYCGQGAHLPLTFGQGTKVEIK	8.54
Ab16 Fab (Fab, V domains shown) VH: EVQLVQSGAEVKKPGATVKISCKVSGYSFITYWISWVQQAPGKGLEWMGAIDPSDSDARYSPSFQGRVTITADTSTDTAYMELSSLRSEDTAVYYCAKSDPGYSGYSLLYGFDSWGQGTLVTVSS VL: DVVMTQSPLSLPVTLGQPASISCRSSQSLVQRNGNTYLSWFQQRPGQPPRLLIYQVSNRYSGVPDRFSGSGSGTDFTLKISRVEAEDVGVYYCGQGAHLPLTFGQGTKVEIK	8.86

These entries and their values trace back to patent US20230220057A1.
